For each of the binders below, state its kon.
Molecular target: T1, Human TNFR2-His (Sino 10417-H08H) (human, UniProt P20333 23-257)
T1 construct: Bought protein; also called recombinant human TNFR2 protein; not shown: His tag
T1 sequence (looked up): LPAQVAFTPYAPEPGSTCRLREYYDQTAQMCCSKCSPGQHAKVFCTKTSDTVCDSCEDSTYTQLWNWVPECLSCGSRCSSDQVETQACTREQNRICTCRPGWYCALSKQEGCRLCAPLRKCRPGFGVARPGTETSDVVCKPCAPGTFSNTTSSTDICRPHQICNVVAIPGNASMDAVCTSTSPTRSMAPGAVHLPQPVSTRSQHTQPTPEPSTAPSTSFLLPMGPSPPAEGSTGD
Experiment: SPR (Biacore T200), antibody captured on Protein A chip
Give bare numbers, in M⁻¹ s⁻¹.

Completed entries (count: 4):
# Binder, kon [M⁻¹ s⁻¹]
measured = [
    ("224-Hu2 (antibody, V domains shown, Humanized form of #224; also called VH9 + VL7) VH: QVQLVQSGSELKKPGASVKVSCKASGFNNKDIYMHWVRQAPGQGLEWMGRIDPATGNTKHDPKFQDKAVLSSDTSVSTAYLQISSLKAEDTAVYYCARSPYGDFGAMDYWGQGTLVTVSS VL: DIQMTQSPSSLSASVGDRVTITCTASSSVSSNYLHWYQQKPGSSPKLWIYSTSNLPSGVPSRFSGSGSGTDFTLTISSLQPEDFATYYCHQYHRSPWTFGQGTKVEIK", 159000),
    ("224-Hu6 (antibody, V domains shown, Humanized form of #224; also called VH8 + VL7) VH: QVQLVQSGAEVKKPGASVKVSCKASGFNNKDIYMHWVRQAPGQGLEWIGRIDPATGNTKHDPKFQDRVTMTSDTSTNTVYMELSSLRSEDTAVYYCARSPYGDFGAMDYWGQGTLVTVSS VL: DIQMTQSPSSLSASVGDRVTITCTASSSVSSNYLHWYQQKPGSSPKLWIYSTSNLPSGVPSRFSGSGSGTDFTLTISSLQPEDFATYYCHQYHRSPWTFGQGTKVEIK", 171000),
    ("219-Hu5 (antibody, V domains shown, also called VH7 + VL5) VH: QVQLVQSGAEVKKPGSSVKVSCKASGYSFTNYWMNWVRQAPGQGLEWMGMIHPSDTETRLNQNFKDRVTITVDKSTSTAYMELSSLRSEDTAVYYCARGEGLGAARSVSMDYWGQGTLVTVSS VL: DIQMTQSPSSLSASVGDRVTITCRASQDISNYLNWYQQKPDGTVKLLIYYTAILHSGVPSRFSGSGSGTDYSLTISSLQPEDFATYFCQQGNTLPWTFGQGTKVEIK", 445000),
    ("001-Hu2 (antibody, V domains shown, Humanized form of #001; also called VH2 + VL2) VH: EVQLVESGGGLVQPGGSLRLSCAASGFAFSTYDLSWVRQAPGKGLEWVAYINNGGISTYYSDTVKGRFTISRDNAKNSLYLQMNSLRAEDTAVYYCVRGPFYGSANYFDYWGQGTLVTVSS VL: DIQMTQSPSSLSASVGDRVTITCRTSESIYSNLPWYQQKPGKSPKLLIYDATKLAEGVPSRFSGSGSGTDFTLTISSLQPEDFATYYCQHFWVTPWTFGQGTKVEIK", 215000),
]

Query binder follows.
Return the recorded kon value; entry: 219-Hu2 (antibody, V domains shown, also called VH4 + VL5) VH: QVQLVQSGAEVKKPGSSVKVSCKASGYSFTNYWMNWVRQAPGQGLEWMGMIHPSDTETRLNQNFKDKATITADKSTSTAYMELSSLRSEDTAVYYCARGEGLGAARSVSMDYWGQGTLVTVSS VL: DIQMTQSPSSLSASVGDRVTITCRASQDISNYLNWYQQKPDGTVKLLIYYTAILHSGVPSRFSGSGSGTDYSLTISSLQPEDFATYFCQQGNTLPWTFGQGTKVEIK
443000
